Documented IC50 across a set of compounds
Target: Fasciola hepatica TIM (FhTIM) (Fasciola hepatica)
Sequence (S4UI50 entry or part of it): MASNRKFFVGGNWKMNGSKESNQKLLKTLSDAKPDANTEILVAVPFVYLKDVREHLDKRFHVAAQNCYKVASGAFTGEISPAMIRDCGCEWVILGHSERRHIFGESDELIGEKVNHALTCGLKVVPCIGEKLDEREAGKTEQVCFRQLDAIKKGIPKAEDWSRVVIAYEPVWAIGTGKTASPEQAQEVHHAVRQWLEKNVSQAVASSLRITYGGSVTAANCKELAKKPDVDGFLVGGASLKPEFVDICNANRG
Test: Inhibition of recombinant FhTIM, coupled enzyme assay
Format: biochemical
Settings: Table 1S, screening of 340 compounds in FhTIM; table head prints no unit, µM per b8/b9; read-out: IC50

Previously resolved entries follow.
>  <compound>
COc1nn(CCOCCN(C)C)c2ccc([N+](=O)[O-])cc12 [Compound 474]

>  <measurement label>
IC50

>  <result>
> 100 µM

$$$$
>  <compound>
CC(=NN=c1[nH]c(C(=O)O)cs1)C1CCC2C3CC=C4CC(O)CCC4(C)C3CCC12C (centres unmarked) [Compound 1258]

>  <measurement label>
IC50

>  <result>
> 100 µM

$$$$

## Task If you can, please state the reported IC50 value of O=C(C(O)c1ccccc1)C(O)c1ccccc1 (centres unmarked) [Compound 1083] .
## Result > 100 µM

## Task Param item: C=CCn1c(-c2ccc(Br)cc2)csc1=NN=C/C=C/c1cccs1 [Compound 1137]
## Result 50 to 100 µM

====

Documented IC50 across a set of molecules
Target: Fasciola hepatica TIM (FhTIM) (Fasciola hepatica)
Test: Inhibition of recombinant FhTIM, coupled enzyme assay
Type: biochemical
Settings: Table 1S, screening of 340 compounds in FhTIM; table head prints no unit, µM per b8/b9; read-out: IC50

>  <molecule>
O=[N+]([O-])c1ccc2c(c1)c(O)nn2CCCCCN1CCCCC1

>  <IC50>
50 to 100 µM

$$$$
>  <molecule>
O=C1C(=CC=Cc2ccccc2)CCCC1=CC=Cc1ccccc1

>  <IC50>
> 100 µM

$$$$
>  <molecule>
O=C1C(=CC=Cc2cccs2)CCC1=CC=Cc1cccs1

>  <IC50>
> 100 µM

$$$$
>  <molecule>
Cc1ccc2c(c1)nc(-c1ccc(N(C)C)cc1)n2CCc1ccccc1

>  <IC50>
> 100 µM

$$$$
>  <molecule>
CN(C)CCCCCn1nc(O)c2cc([N+](=O)[O-])ccc21

>  <IC50>
> 100 µM

$$$$
>  <molecule>
COc1ccc(CN2c3nc(-c4ccccc4OC)[nH]c3C(N)=NS2(=O)=O)cc1

>  <IC50>
> 100 µM

$$$$
>  <molecule>
C=CCn1c(-c2ccc(OC)cc2)csc1=NN=CC=Cc1ccco1

>  <IC50>
> 100 µM

$$$$
>  <molecule>
Cc1ccc(-c2cc(C(F)(F)F)nn2-c2ccc(S(N)(=O)=O)cc2)cc1

>  <IC50>
> 100 µM

$$$$

## Task If you can, please state the reported IC50 value of C=CCn1c(-c2ccccc2)csc1=NN=Cc1ccc2ccccc2c1 .
## Result 50 to 100 µM

## Task Param item: C=CCN1C(=O)CSC1=NN=CC=CC=Cc1cccs1
## Result > 100 µM

## Task Param item: CCCCNCCCCCn1nc(OC)c2cc([N+](=O)[O-])ccc21
## Result > 100 µM

====

Biological target: Fasciola hepatica TIM (FhTIM) (Fasciola hepatica)
Assay: Inhibition of recombinant FhTIM, coupled enzyme assay
Assay type: biochemical
Details: Table 1S, screening of 340 compounds in FhTIM; table head prints no unit, µM per b8/b9; read-out: IC50
Documented IC50 across a set of compounds

Previously resolved entries follow.
>  <compound>
O=Cc1ccc2no[n+]([O-])c2c1

>  <result>
> 100 µM

$$$$
>  <compound>
C=CCN1C(=O)CSC1=NN=C(C)[C@H]1CC[C@H]2[C@@H]3CC=C4CC(O)CC[C@]4(C)[C@H]3CC[C@]12C (stereo partly drawn)

>  <result>
> 100 µM

$$$$
>  <compound>
C(=Cc1ccco1)C=NN=CC=Cc1ccco1

>  <result>
> 100 µM

$$$$

## Task If you can, please state the reported IC50 value of O=C(O)c1ccc(C=CCN2C(=O)c3ccccc3C2=O)cc1 (mixture of isomers) .
## Result > 100 µM

## Task Param item: O=C1C(=CC=Cc2ccccc2)CCC1=CC=Cc1ccccc1
## Result 50 to 100 µM

## Task Param item: COc1nn(CCOCCN(C)CC=Cc2ccccc2)c2ccc([N+](=O)[O-])cc12
## Result > 100 µM

## Task Param item: C=CCn1c(C(=O)CN2CCN(c3ccccc3)CC2)csc1=NN=CC=Cc1ccco1
## Result > 100 µM

## Task Param item: [O-][n+]1onc(-c2ccccc2)c1CNc1cccc2ccccc12
## Result > 100 µM

## Task Param item: NC(=NO)c1ccc(Br)cc1
## Result > 100 µM

## Task Param item: C=CCn1c(-c2csc(=NN=Cc3cccs3)n2CC=C)csc1=NN=Cc1cccs1
## Result > 100 µM

## Task Param item: C=CCn1c(-c2ccc(Br)cc2)csc1=NN=CC=Cc1ccco1
## Result 50 to 100 µM

## Task Param item: C=CCN1C(=O)CSC1=NN=Cc1cccs1
## Result > 100 µM

## Task Param item: Cc1ccc(-c2nsc(=O)[nH]2)cc1
## Result > 100 µM

## Task Param item: C=CCNC(=S)NN=Cc1ccc([N+](=O)[O-])s1
## Result > 100 µM

## Task Param item: C=CCn1c(C(=O)NN2CCN(CC=Cc3ccccc3)CC2)csc1=NN=CC=Cc1ccco1
## Result > 100 µM

## Task Param item: O=C(/C=C/c1ccco1)c1ccccc1O
## Result 100 µM

## Task Param item: C=CCn1c(-c2ccc(OC)cc2)csc1=NN=Cc1ccc([N+](=O)[O-])s1
## Result > 100 µM

## Task Param item: COc1ccc(C=Cc2cnnc[n+]2[O-])cc1
## Result > 100 µM

## Task Param item: C=CCn1c(-c2ccc(Cl)cc2)csc1=NN=C/C=C/C=C/c1cccs1
## Result 50 to 100 µM

====

Biological target: FhTIM (Fasciola hepatica, UniProt S4UI50)
Sequence (S4UI50 entry or part of it): as above
Test: Microscale thermophoresis (MST) binding to FhTIM
Conditions: 24 °C
measurement label: Kd (µM)

Previously resolved entries follow.
>  <compound>
CSc1nc2cc(Cl)c(Oc3cccc(Cl)c3Cl)cc2[nH]1 [Compound 1278, triclabendazole, reference compound]

>  <units label>
µM

>  <Kd>
1000

$$$$
>  <compound>
Cc1ccc(-c2nsc(S(=O)(=O)c3ccc(C)cc3)n2)cc1

>  <units label>
µM

>  <Kd>
0.07

$$$$
>  <compound>
CCCCCCN1C(=O)C(=Cc2ccc([N+](=O)[O-])cc2)C(=O)N(CCCCCC)S1(=O)=O

>  <units label>
µM

>  <Kd>
120

$$$$

(1) O=C1C(=Cc2ccc([N+](=O)[O-])s2)C(=O)N(CCc2ccccc2)S(=O)(=O)N1CCc1ccccc1
(2) O=C1C(=Cc2ccc([N+](=O)[O-])s2)C(=O)N(Cc2ccccc2)S(=O)(=O)N1Cc1ccccc1
## Task Sort 1 and 2 by Kd descending and give the first. Your answer should be the label attached to the chosen record.
## Result 2
(2: 664 µM, 1: 120 µM)

====

Documented SOMULES SEVERITY SCORE across a set of molecules
Test system: S. mansoni somules
Assay: S. mansoni somules phenotypic screen in vitro
Assay type: cell-based, Schistosoma mansoni
Details: Table 2S, 10 uM, 48 h
Output spec: single numeric token, no unit.

Previously resolved entries follow.
>  <compound smiles>
CCCCN1C(=O)C(=Cc2ccc([N+](=O)[O-])s2)C(=O)N(CCCC)S1(=O)=O

>  <subject of test>
S. mansoni somules

>  <recorded number>
1

$$$$
>  <compound smiles>
C=CCN1C(=O)CSC1=NN=Cc1ccc2c(c1)[n+]([O-])c(-c1ccccc1)c(C(=O)Nc1ccccc1)[n+]2[O-]

>  <subject of test>
S. mansoni somules

>  <recorded number>
4

$$$$
>  <compound smiles>
C=CCn1c(-c2ccc(Cl)cc2)csc1=NN=CC=Cc1ccc([N+](=O)[O-])s1

>  <subject of test>
S. mansoni somules

>  <recorded number>
2

$$$$
>  <compound smiles>
O=C1C(=Cc2ccc([N+](=O)[O-])s2)C(=O)N(CCc2ccccc2)S(=O)(=O)N1CCc1ccccc1

>  <subject of test>
S. mansoni somules

>  <recorded number>
3

$$$$

Here is the next item to consider.
## Task If you can, please state the reported SOMULES SEVERITY SCORE value of Cc1ccc(-c2nsc(S(=O)(=O)c3ccc(C)cc3)n2)cc1 .
## Result 4

====

Molecular target: Fasciola hepatica TIM (FhTIM) (Fasciola hepatica)
Test: Inhibition of recombinant FhTIM, coupled enzyme assay
Type: biochemical
Conditions: Table 1S, screening of 340 compounds in FhTIM; table head prints no unit, µM per b8/b9; read-out: IC50
Documented IC50 across a set of molecules

Previously resolved entries follow.
>  <molecule>
CC(=NNC(N)=O)c1cccc(C(C)=NNC(N)=O)n1 [Compound 701]

>  <subject of test>
Fasciola hepatica TIM (FhTIM) (Fasciola hepatica)

>  <IC50>
> 100 µM

$$$$
>  <molecule>
CC(=O)N(C1=NN(C(C)=O)C(c2cccs2)S1)c1ccccc1 (stereo not drawn) [Compound 284]

>  <subject of test>
Fasciola hepatica TIM (FhTIM) (Fasciola hepatica)

>  <IC50>
> 100 µM

$$$$
>  <molecule>
O=C1C(=Cc2ccc([N+](=O)[O-])o2)C(=O)N(Cc2ccccc2)S(=O)(=O)N1Cc1ccccc1 [Compound 116]

>  <subject of test>
Fasciola hepatica TIM (FhTIM) (Fasciola hepatica)

>  <IC50>
< 25 µM

$$$$

## Task If you can, please state the reported IC50 value of C=CCN(C(C)=O)C1=NNC(c2ccc([N+](=O)[O-])s2)S1 (stereo not drawn) [Compound 287] .
## Result > 100 µM

## Task Param item: NNC(=O)Nc1ccc(Cl)cc1 [Compound 397]
## Result > 100 µM

## Task Param item: C=CCn1c(-c2ccccc2)csc1=NN=Cc1ccc([N+](=O)[O-])s1 [Compound 147]
## Result > 100 µM
